Values compiled from patent US7348425B2.

# experimental-system: HCV NS5B RdRp genotype 1b (Hepatitis C virus genotype 1b)
# Construct: The protein was expressed with an 18 amino acid C-terminal truncation to enhance the solubility; made in house; host or cells: E. coli BL21 (DE3), pET21a
# Sequence (Q9WMX2 2420-2992): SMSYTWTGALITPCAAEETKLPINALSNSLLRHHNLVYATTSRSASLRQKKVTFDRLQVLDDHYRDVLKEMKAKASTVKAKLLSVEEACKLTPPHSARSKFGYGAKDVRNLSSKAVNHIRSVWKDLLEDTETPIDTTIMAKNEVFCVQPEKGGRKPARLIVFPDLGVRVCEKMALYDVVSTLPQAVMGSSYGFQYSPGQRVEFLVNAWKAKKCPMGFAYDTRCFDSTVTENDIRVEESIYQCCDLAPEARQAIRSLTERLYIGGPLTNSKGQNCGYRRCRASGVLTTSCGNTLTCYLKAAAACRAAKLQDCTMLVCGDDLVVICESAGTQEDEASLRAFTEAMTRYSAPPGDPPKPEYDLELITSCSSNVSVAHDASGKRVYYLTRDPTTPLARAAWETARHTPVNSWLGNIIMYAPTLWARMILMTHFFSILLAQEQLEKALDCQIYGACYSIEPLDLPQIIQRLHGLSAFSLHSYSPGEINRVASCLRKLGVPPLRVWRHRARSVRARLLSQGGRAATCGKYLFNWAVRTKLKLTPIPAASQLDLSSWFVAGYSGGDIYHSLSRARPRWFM
# assay-remarks: Modified HCV NS5B RdRp enzyme assay (with preincubation)
# Type: biochemical
# condition-parameters: modified method (with preincubation)
Measured IC50, listed per entry.

{"compound-smiles": "COC(=O)/C=C/c1ccc(NC(=O)C2(NC(=O)c3ccc4c(C5CCCCC5)c5n(c4c3)CCCc3sc(N)nc3-5)CCCC2)cc1", "endpoint-value": "> 1000 nM"}
{"compound-smiles": "O=C(O)c1ccc2c(C3CCCCC3)c3n(c2c1)CNc1ccccc1-3", "endpoint-value": "20 to 1000 nM"}
{"compound-smiles": "O=C(O)/C=C/c1ccc(NC(=O)C2(NC(=O)c3ccc4c(C5CCCCC5)c5n(c4c3)CCCc3ccccc3-5)CCCC2)cc1", "endpoint-value": "20 to 1000 nM"}
{"compound-smiles": "O=C(O)/C=C/c1ccc(NC(=O)C2(NC(=O)c3ccc4c(C5CCCCC5)c5n(c4c3)CCNc3ccccc3-5)CCCC2)cc1", "endpoint-value": "20 to 1000 nM"}

Continue with the next compound.
Report IC50, nothing else, for this compound: COC(=O)c1ccc2c(C3CCCCC3)c3n(c2c1)CC(C(=O)O)=Cc1cc(OC)ccc1-3 20 to 1000 nM
